# measurement_target: CCR5 (UniProt P51681)
# method: cell-based or functional assay
Each record's class is read off its CCR5 signalling (%) (% of Emax of PSC-RANTES) using these ranges: Low (below 2), Mid (2 to below 8), High (8 or more)

Band for the recorded CCR5 signalling (%) (% of Emax of PSC-RANTES) of RANTES derivative: signature sequence SEQ ID NO: 39 fused to positions 10-68 of native RANTES (SEQ ID NO: 1) (ligand) QGPPLSWSQVCCFAYIARPLPRAHIKEYFYTSGKCSNPAVVFVTRKNRQVCANPEKKWVREYINSLEMS ?
Low

In plain terms, what class is RANTES derivative: signature sequence SEQ ID NO: 38 fused to positions 10-68 of native RANTES (SEQ ID NO: 1) (ligand) QGPPLMQLQVCCFAYIARPLPRAHIKEYFYTSGKCSNPAVVFVTRKNRQVCANPEKKWVREYINSLEMS ?
Low

Class label required: RANTES derivative: signature sequence SEQ ID NO: 26 fused to positions 10-68 of native RANTES (SEQ ID NO: 1) (ligand) QGPLSGWLQVCCFAYIARPLPRAHIKEYFYTSGKCSNPAVVFVTRKNRQVCANPEKKWVREYINSLEMS
High

Returns: class label. Input: RANTES derivative: signature sequence SEQ ID NO: 50 fused to positions 10-68 of native RANTES (SEQ ID NO: 1) (ligand) QGPPLQWFQVCCFAYIARPLPRAHIKEYFYTSGKCSNPAVVFVTRKNRQVCANPEKKWVREYINSLEMS
Mid

Class (by measured CCR5 signalling (%) (% of Emax of PSC-RANTES)) for RANTES derivative: signature sequence SEQ ID NO: 37 fused to positions 10-68 of native RANTES (SEQ ID NO: 1) (ligand) QGPPLMGTQSCCFAYIARPLPRAHIKEYFYTSGKCSNPAVVFVTRKNRQVCANPEKKWVREYINSLEMS
Low

Exam item: assign RANTES derivative: signature sequence SEQ ID NO: 56 fused to positions 10-68 of native RANTES (SEQ ID NO: 1) (ligand) QGPPLMSSQSCCFAYIARPLPRAHIKEYFYTSGKCSNPAVVFVTRKNRQVCANPEKKWVREYINSLEMS to the correct category.
Mid

Note: place this binder into its band. Item: RANTES derivative: signature sequence SEQ ID NO: 67 fused to positions 10-68 of native RANTES (SEQ ID NO: 1) (ligand) QGPPLMSAQSCCFAYIARPLPRAHIKEYFYTSGKCSNPAVVFVTRKNRQVCANPEKKWVREYINSLEMS
High

Please report the category associated with RANTES derivative: signature sequence SEQ ID NO: 62 fused to positions 10-68 of native RANTES (SEQ ID NO: 1) (ligand) QGPPLMSTQVCCFAYIARPLPRAHIKEYFYTSGKCSNPAVVFVTRKNRQVCANPEKKWVREYINSLEMS , nothing else.
High

Could you place RANTES derivative: signature sequence SEQ ID NO: 4 fused to positions 10-68 of native RANTES (SEQ ID NO: 1) (ligand) QGPPLMWLQVCCFAYIARPLPRAHIKEYFYTSGKCSNPAVVFVTRKNRQVCANPEKKWVREYINSLEMS in its proper category? Many thanks.
Mid

Which class holds RANTES derivative: signature sequence SEQ ID NO: 41 fused to positions 10-68 of native RANTES (SEQ ID NO: 1) (ligand) QGPPLMNLQVCCFAYIARPLPRAHIKEYFYTSGKCSNPAVVFVTRKNRQVCANPEKKWVREYINSLEMS ?
Low

Values were extracted from patent US20090317363A1.
